This collection of values is drawn from PubChem BioAssay (EPA / NIEHS).

measured.target: Thyroid hormone receptor alpha (Rattus norvegicus) + Thyroid hormone receptor beta (Rattus norvegicus) (UniProt P18113+P63059)
experiment.notes: TOX21_TR_LUC_GH3_Antagonist_Followup: Tox21 GH3 Thyroid Hormone Receptor Antagonism Luciferase Follow-Up Assay (AID 2283942)
Description: TOX21_TR_LUC_GH3_Agonist_Followup is a secondary assay for the TOX21_TR_LUC_GH3_Agonist assay. TOX21_TR_LUC_GH3_Agonist_Followup is a cell-based, single-readout assay that uses GH3, a rat pituitary gland cell line, with measurements taken at 28 hours after chemical dosing in a 1536-well plate.TOX21_TR_LUC_GH3_Antagonist_Followup is one of one assay component(s) measured or calculated from the TOX21_TR_LUC_GH3_Antagonist_Followup assay. […]
Results filed as inconclusive are left out. Calls of active or inactive are those of the source. How the source made its calls: active means hit-call score of the fitted dose curve at least 0.9, where 1 is the maximum; inconclusive means response in the unintended direction; inactive means score below 0.9.
Labels: active, inactive

molecule | qualitative.label
C/C=C1/C(=O)C[C@H]2[C@@H]3CCC4=CC(=O)CC[C@]4(C)[C@H]3CC[C@]12C | inactive
O=C1c2ccccc2-c2n[nH]c3cccc1c23 | inactive
COc1ccc2c(c1)N(C[C@H](C)CN(C)C)c1ccccc1S2 | active
COC(=O)Nc1nc2ccc(S(=O)c3ccccc3)cc2[nH]1 (centres undefined) | inactive
